# experimental.system: recombinant human CD3ε/δ heterodimer (human) (UniProt P07766)
# Sequence (P07766 23-126, stated change not applied, chain 1 of 2): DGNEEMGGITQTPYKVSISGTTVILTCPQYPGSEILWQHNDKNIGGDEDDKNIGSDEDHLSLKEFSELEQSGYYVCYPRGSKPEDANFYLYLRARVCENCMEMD
# Sequence (P04234 22-105, stated change not applied, chain 2 of 2, further chain): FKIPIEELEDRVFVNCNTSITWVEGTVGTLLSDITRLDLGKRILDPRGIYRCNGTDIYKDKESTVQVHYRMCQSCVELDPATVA
# assay.summary: ELISA, coated CD3ε/δ
measurement.name: Absorbance (450 nm)

binder="A14 (antibody, human IgG1, lambda, L234A L235A, V domains shown) VH: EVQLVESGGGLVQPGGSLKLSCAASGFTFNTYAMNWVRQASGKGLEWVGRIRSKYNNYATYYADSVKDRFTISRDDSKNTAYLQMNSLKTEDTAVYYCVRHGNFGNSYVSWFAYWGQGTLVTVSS VL: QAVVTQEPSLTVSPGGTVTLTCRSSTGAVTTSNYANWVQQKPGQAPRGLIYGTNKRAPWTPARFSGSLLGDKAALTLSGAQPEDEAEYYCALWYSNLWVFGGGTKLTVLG" value=0.125
binder="C04 (antibody, human IgG1, lambda, L234A L235A, V domains shown) VH: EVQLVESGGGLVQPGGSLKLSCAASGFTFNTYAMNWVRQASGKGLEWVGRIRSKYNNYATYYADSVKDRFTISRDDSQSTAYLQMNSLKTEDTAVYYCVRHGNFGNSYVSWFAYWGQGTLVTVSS VL: QAVVTQEPSLTVSPGGTVTLTCRSSTGAVTTSNYANWFQQKPGQAPRTLIGGTNKRAPWTPARFSGSLLGDKAALTLSGAQPEDEAEYYCALWYSNLWVFGGGTKLTVLG" value=0.093
binder="F07 (antibody, human IgG1, lambda, L234A L235A, V domains shown) VH: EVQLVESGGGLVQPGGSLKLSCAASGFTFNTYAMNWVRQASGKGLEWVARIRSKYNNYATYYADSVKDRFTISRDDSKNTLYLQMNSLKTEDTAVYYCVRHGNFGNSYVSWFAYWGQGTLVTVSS VL: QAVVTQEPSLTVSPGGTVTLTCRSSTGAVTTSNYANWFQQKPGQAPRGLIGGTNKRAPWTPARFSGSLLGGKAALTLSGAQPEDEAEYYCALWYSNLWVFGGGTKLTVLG" value=0.133
binder="D14 (antibody, human IgG1, lambda, L234A L235A, V domains shown) VH: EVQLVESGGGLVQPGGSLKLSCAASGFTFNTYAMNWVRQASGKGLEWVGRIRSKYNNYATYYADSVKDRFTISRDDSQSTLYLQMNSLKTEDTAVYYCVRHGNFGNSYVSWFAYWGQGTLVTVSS VL: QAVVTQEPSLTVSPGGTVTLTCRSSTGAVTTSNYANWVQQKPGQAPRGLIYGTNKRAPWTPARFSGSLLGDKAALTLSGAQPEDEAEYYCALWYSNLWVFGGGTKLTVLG" value=0.149
binder="B16 (antibody, human IgG1, lambda, L234A L235A, V domains shown) VH: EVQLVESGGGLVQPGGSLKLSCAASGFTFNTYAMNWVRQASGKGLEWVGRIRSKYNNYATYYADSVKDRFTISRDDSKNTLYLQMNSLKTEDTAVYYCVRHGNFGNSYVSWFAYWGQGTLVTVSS VL: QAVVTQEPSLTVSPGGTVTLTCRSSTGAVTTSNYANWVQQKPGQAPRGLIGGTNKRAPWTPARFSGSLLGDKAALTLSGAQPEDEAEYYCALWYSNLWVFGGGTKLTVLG" value=2.37
binder="D08 (antibody, human IgG1, lambda, L234A L235A, V domains shown) VH: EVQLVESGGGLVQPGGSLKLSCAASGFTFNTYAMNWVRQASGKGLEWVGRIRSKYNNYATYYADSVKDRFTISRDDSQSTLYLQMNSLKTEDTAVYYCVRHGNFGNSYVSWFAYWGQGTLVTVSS VL: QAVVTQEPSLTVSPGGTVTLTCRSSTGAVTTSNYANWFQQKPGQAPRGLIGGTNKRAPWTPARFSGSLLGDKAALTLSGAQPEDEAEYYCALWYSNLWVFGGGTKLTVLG" value=0.897
binder="F06 (antibody, human IgG1, lambda, L234A L235A, V domains shown) VH: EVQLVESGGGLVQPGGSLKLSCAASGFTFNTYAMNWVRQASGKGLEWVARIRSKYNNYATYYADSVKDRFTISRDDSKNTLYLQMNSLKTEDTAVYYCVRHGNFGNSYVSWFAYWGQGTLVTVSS VL: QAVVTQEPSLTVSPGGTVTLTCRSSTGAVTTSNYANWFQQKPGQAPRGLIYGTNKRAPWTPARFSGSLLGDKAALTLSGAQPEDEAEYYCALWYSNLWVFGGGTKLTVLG" value=0.115
binder="F12 (antibody, human IgG1, lambda, L234A L235A, V domains shown) VH: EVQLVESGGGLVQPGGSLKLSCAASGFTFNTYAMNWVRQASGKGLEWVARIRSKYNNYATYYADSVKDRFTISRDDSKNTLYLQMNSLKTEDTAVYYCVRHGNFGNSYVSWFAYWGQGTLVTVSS VL: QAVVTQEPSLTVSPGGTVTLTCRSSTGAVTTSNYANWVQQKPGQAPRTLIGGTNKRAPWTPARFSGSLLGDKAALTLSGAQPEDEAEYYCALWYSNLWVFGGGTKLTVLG" value=0.09
binder="H11 (antibody, human IgG1, lambda, L234A L235A, V domains shown) VH: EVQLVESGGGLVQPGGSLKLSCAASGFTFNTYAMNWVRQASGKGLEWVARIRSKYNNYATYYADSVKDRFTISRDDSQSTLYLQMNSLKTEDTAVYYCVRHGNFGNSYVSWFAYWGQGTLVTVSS VL: QAVVTQEPSLTVSPGGTVTLTCRSSTGAVTTSNYANWVQQKPGQAPRTLIGGTNKRAPWTPARFSGSLLGGKAALTLSGAQPEDEAEYYCALWYSNLWVFGGGTKLTVLG" value=0.122
binder="D10 (antibody, human IgG1, lambda, L234A L235A, V domains shown) VH: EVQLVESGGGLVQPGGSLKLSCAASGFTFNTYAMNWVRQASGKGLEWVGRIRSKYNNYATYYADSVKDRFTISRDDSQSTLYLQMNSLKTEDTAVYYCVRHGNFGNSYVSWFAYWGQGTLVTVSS VL: QAVVTQEPSLTVSPGGTVTLTCRSSTGAVTTSNYANWVQQKPGQAPRTLIYGTNKRAPWTPARFSGSLLGDKAALTLSGAQPEDEAEYYCALWYSNLWVFGGGTKLTVLG" value=0.117

The measured values listed here are drawn from patent US20200317779A1.
